System: FMOC14 (patient-derived high-grade serous ovarian cancer cells)
Assay: drug sensitivity score (DSS3, normalised partial AUC of % inhibition dose-response) (DSS (score)); higher = more sensitive (stronger inhibition of viability); extreme values may be limits of the assay
Details: 72 h; library: FO5A; assay format: 2D, 384-well, CellTiter-Glo
Measurement name: drug sensitivity score

>>> recorded_value("COc1ccc(-c2ccc3ncc4c(c3c2)n(-c2ccc(N3CCNCC3)c(C(F)(F)F)c2)c(=O)n4C)cn1")
14.9
>>> recorded_value("C=CCN(/C=C1/C(=O)O[C@H](COC)[C@@]2(C)C1=C(O)C(=O)C1=C2[C@H](OC(C)=O)C[C@]2(C)C(=O)CC[C@@H]12)CC=C")
0
>>> recorded_value("CC(C)(C)c1cnc(CSc2cnc(NC(=O)C3CCNCC3)s2)o1")
17.9
>>> recorded_value("CCCCOc1nc(N)c2c(n1)N(Cc1cccc(CN3CCCC3)c1)CC(=O)N2")
0
>>> recorded_value("COCC[n+]1c2c(n(Cc3cnccn3)c1C)C(=O)c1ccccc1C2=O [Sepantronium bromide]")
42.6
>>> recorded_value("CCN1CCN(Cc2ccc(Nc3ncc(F)c(-c4cc(F)c5nc(C)n(C(C)C)c5c4)n3)nc2)CC1")
0.1

====

System: FMOC25_2 (patient-derived low-grade serous ovarian cancer cells)
Assay: drug sensitivity score (DSS3, normalised partial AUC of % inhibition dose-response) (DSS (score)); higher = more sensitive (stronger inhibition of viability); extreme values may be limits of the assay
Conditions: 72 h; library: FO5A; assay format: 2D, 384-well, CellTiter-Glo
Would you mind labelling by drug sensitivity score? At or over 6 is rule met, under is rule not met.

>>> label_value("COc1cc(N2CCC(N3CCN(C)CC3)CC2)ccc1Nc1ncc(Cl)c(Nc2ccccc2P(C)(C)=O)n1")
"rule met"
>>> label_value("CN1CCN(c2ccc3nc(-c4c(N)c5c(F)cccc5[nH]c4=O)[nH]c3c2)CC1")
"rule not met"
>>> label_value("Nc1nc(OCc2cc(Br)cs2)c2[nH]cnc2n1")
"rule not met"
>>> label_value("COc1cccc2c1C(=O)c1c(O)c3c(c(O)c1C2=O)C[C@@](O)(C(=O)CO)C[C@@H]3O[C@H]1C[C@H](N)[C@@H](O)[C@H](C)O1 [Epirubicin]")
"rule met"
>>> label_value("Nc1ccn([C@@H]2O[C@H](CO)[C@@H](O)[C@@H]2O)c(=O)n1")
"rule met"
>>> label_value("Nc1nc(NC2CC2)cc(-c2cccc(Cl)c2Cl)n1")
"rule not met"
>>> label_value("CC/C(=C(\\c1ccc(O)cc1)c1ccc(OCCN(C)C)cc1)c1ccccc1 [4-hydroxytamoxifen]")
"rule not met"
>>> label_value("CN1CCN(c2cc(C(=O)Nc3ccc4c(c3)-c3c(c(C(N)=O)nn3-c3ccc(F)cc3)CC4)c(Cl)cn2)CC1")
"rule met"
>>> label_value("CC(C)(C)c1cnc(CSc2cnc(NC(=O)C3CCNCC3)s2)o1")
"rule met"
>>> label_value("CCn1c(-c2nonc2N)nc2c(C#CC(C)(C)O)ncc(OC[C@H]3CCCNC3)c21")
"rule met"
>>> label_value("C[C@@H]1CCN(C(=O)CC#N)C[C@@H]1N(C)c1ncnc2[nH]ccc12")
"rule not met"
>>> label_value("Nc1cc(COc2c(Cl)cc(C[C@H](N)C(=O)O)cc2Cl)c2oc(-c3ccccc3)nc2c1")
"rule not met"
>>> label_value("Cc1cc(Nc2cc(N3CCN(C)CC3)nc(/C=C/c3ccccc3)n2)n[nH]1")
"rule met"
>>> label_value("Oc1ccc2c(c1)CC[C@H](c1ccccc1)[C@@H]2c1ccc(OCCN2CCCC2)cc1")
"rule not met"
